system-under-test: β-secretase (BACE) (Homo sapiens, UniProt P56817)
Construct: purchased Panvera
Sequence (P56817 46-501): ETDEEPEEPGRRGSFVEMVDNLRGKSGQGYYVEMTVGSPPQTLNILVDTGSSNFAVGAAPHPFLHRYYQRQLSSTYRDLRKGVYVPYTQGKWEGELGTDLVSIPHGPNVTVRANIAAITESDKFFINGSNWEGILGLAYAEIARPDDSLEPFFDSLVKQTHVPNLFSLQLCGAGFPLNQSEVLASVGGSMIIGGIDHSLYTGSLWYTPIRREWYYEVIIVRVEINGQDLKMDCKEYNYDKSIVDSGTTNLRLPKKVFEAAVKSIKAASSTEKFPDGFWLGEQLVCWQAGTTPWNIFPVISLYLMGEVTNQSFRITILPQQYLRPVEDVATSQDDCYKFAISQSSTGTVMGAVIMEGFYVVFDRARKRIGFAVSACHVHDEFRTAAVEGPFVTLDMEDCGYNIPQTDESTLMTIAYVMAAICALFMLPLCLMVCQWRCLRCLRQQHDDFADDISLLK
test-method-notes: BACE FS1 Assay (% Inhibition and Ki)
Format: biochemical
condition-summary: 0.3 μM test compound; FS1 substrate; read-out: % Inhibition (FS) @ 0.3 μM
Where a name gives a salt, the structure may show the parent alone.
measurement-label: inhibition at 0.3 µM

- COC(=O)[C@H](COCc1ccccc1)NC(=O)CC[C@@H](C(C)C)N1Cc2cc(Oc3ccccc3)ncc2N=C1N [Compound 45, hydrobromide salt]: 82%
- CN(C(=O)CC[C@@H](C1CCCCC1)N1Cc2cc(Oc3ccccc3)ncc2N=C1N)C1CCCCC1: 125%
- COc1ccccc1-c1cc2c(cn1)N=C(N)N([C@@H](CCC(=O)N(C)C1CCCCC1)C1CCCCC1)C2: 130%
- CN(C(=O)CC[C@@H](C1CCCCC1)N1Cc2cc(-c3ccccc3F)ncc2N=C1N)C1CCCCC1: 113%
